- experimental.protocol: Restrictive medium S. cerevisiae growth inhibition, OD615, pilot screen of yeast lifespan reduction project, restrictive growth control (AID 706);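 further: modified DeaD lifespan yeast strain shifted to restrictive glucose medium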
- recorded.conditions: OD615, 48 h, at 10 µM, hits give high values
value.kind: growth inhibition (%)

compound=O=C(Nc1ccc(Br)cc1F)C1CCN(c2nnc(-n3cccc3)s2)CC1 measurement=-4.69
compound=COCCN1Cc2cccc(C(=O)NCc3cccnc3)c2C1=O measurement=10.2
compound=N#CCC(=O)Nc1sc2c(c1C(N)=O)CCCC2 measurement=-7.35
compound="COCCN1C(=O)C(CC(=O)Nc2ccc(C(=O)O)cc2)SC1=Nc1ccccc1 (stereo unspecified)" measurement=-19.2
compound=COc1ccc(N2CCN(C(=O)c3ccc(CS(=O)(=O)c4ccc(OC)cc4)o3)CC2)cc1 measurement=-3.61
compound="Cc1ccc2oc3c(c(=O)c2c1)C(c1ccc(F)cc1)N(CCCN1CCOCC1)C3=O (stereo unspecified)" measurement=-0.585
compound=O=C(CCCOc1ccccc1)Nc1cccc(C(=O)O)c1 measurement=3.65
compound=CCCc1nnc(NC(=O)CC(=O)OCC)s1 measurement=-8.03
compound=COCCNC(=O)CN(c1ccccc1OC)S(C)(=O)=O measurement=1.17
compound=O=C(CSCC(=O)N1CCOCC1)Nc1nc(-c2ccc3c(c2)OCO3)cs1 measurement=-3.92
compound="O=C(Nc1ccccc1)N1CCN2C(=O)c3ccccc3C12c1ccccc1 (stereo unspecified)" measurement=-1.31

Reference source for all entries: PubChem BioAssay
